// data source = paper PMC9488889

# tested_target: C3b (Homo sapiens, UniProt P01024)
# Construct: the α’NT, MG6^α−8, anchor, and C-terminal complement (CTC) domains of the α-chain that are all shared between C3c and C3b; purchased Complement Technology (Tyler, TX, USA)
# Sequence (P01024 23-667 limits assumed): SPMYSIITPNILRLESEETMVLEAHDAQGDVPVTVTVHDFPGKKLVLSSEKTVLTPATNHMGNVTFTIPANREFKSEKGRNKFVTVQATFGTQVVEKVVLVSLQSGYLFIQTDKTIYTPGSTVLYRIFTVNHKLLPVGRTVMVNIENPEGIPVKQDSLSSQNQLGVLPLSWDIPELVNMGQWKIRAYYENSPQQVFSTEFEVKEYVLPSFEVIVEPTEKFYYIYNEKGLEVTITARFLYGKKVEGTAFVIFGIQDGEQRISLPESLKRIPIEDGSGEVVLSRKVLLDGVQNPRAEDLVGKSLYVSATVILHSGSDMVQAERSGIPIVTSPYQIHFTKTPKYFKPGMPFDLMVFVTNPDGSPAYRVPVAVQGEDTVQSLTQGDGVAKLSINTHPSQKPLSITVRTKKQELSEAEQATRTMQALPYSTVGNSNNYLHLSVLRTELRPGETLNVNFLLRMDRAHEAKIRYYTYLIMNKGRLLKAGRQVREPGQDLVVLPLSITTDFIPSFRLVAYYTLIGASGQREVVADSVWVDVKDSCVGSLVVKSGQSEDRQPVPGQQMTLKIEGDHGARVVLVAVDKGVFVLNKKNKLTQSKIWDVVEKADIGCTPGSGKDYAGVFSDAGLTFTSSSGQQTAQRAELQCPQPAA
# Sequence (P01024 749-1663 limits assumed): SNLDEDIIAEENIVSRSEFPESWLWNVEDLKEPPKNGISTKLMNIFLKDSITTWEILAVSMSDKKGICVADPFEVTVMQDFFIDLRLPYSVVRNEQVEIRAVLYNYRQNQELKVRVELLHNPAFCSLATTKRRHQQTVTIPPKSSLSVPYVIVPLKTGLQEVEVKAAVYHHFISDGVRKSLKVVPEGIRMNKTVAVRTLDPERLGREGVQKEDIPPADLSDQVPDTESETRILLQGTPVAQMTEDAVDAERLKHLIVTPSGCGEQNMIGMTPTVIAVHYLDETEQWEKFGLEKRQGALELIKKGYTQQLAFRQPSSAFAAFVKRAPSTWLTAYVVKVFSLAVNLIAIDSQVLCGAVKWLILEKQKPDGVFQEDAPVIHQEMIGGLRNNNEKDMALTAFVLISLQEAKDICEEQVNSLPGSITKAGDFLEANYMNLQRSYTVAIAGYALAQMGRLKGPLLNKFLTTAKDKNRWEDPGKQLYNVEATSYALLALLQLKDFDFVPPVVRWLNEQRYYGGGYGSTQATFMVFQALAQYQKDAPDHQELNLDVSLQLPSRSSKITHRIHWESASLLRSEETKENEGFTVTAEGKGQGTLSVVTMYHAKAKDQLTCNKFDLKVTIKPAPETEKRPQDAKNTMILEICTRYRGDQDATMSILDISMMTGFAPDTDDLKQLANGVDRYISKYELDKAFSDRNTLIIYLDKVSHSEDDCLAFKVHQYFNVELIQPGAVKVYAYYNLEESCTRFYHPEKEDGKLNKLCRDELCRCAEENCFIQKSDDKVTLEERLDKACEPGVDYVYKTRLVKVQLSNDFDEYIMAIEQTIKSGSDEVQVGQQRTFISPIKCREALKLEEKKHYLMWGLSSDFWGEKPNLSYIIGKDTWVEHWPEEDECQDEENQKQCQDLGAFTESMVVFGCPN
# protocol_details: SPR kinetic binding studies on immobilized C3b
# run_conditions: pH 7.4, read-out: ka, Dataset 3
Bridge positions count the residues as written; N and C are the ends. Square brackets hold non-standard residues; d marks the D form. Peptide text beside a SMILES is read from it. Trp(1-Me) = Cn1cc(C[C@H](N)C(=O)O)c2ccccc21; Sar = CNCC(=O)O
quantity: kon (M⁻¹ s⁻¹)
Unit M⁻¹ s⁻¹ implied. Number only.

Supply reported kon belonging to this molecule: CC[C@H](C)[C@H](NC(=O)[C@H](N)Cc1ccc(O)cc1)C(=O)N[C@H]1CSSC[C@@H](C(=O)N[C@@H](C)C(N)=O)NC(=O)[C@H](CCCNC(=N)N)NC(=O)[C@H](Cc2c[nH]cn2)NC(=O)[C@H](C)NC(=O)CN(C)C(=O)[C@H](Cc2c[nH]c3ccccc23)NC(=O)[C@H](CC(=O)O)NC(=O)[C@H](CCC(N)=O)NC(=O)[C@H](Cc2cn(C)c3ccccc23)NC(=O)[C@H](C(C)C)NC1=O [Cp40 mI14A] (H-[dY]ICV[Trp(1-Me)]QDW[Sar]AHRCA-NH2; disulfide 3-13)
3.53e+06

---

Consider the following compounds and their measured kon readings.
# tested_target: C3b (Homo sapiens, UniProt P01024)
# Construct: the α’NT, MG6^α−8, anchor, and C-terminal complement (CTC) domains of the α-chain that are all shared between C3c and C3b; purchased Complement Technology (Tyler, TX, USA)
# protocol_details: SPR kinetic binding studies on immobilized C3b
# run_conditions: pH 7.4, read-out: ka
Bridge positions count the residues as written; N and C are the ends. Square brackets hold non-standard residues; d marks the D form. Peptide text beside a SMILES is read from it. Trp(1-Me) = Cn1cc(C[C@H](N)C(=O)O)c2ccccc21; NMeI = CC[C@H](C)[C@H](NC)C(=O)O; Sar = CNCC(=O)O
Numeric answer only, unit M⁻¹ s⁻¹ assumed.

Record excerpt, results attached:
INSERT INTO results (compound, quantity, measured_number) VALUES
  ('CC[C@H](C)[C@H](NC(=O)[C@H](N)Cc1ccc(O)cc1)C(=O)N[C@H]1CSSC[C@@H](C(=O)N(C)[C@H](C(N)=O)[C@@H](C)CC)NC(=O)[C@H](CCCNC(=N)N)NC(=O)[C@H](Cc2c[nH]cn2)NC(=O)[C@H](C)NC(=O)CN(C)C(=O)[C@H](Cc2c[nH]c3ccccc23)NC(=O)[C@H](CC(=O)O)NC(=O)[C@H](CCC(N)=O)NC(=O)[C@H](Cc2cn(CCC(C)C)c3ccccc23)NC(=O)[C@H](C(C)C)NC1=O', 'kon', 200000),
  ('CC[C@H](C)[C@H](NC(=O)[C@H](N)Cc1ccc(O)cc1)C(=O)N[C@H]1CSSC[C@@H](C(=O)N(C)[C@H](C(N)=O)[C@@H](C)CC)NC(=O)[C@H](CO)NC(=O)[C@H](Cc2c[nH]cn2)NC(=O)[C@H](C)NC(=O)CN(C)C(=O)[C@H](Cc2c[nH]c3ccccc23)NC(=O)[C@H](CO)NC(=O)[C@H](CCC(N)=O)NC(=O)[C@H](Cc2cn(C)c3ccccc23)NC(=O)[C@H](C(C)C)NC1=O [Cp40 D7S/R12S] (H-[dY]ICV[Trp(1-Me)]QSW[Sar]AHSC[NMeI]-NH2; disulfide 3-13)', 'kon', 100000),
  ('CC[C@H](C)[C@H](NC(=O)[C@H](N)Cc1ccc(O)cc1)C(=O)N[C@H]1CSSC[C@@H](C(=O)N(C)[C@H](C(N)=O)[C@@H](C)CC)NC(=O)[C@H](CCCNC(=N)N)NC(=O)[C@H](Cc2c[nH]cn2)NC(=O)[C@H](C)NC(=O)CN(C)C(=O)[C@H](Cc2c[nH]c3ccccc23)NC(=O)[C@H](CC(=O)O)NC(=O)[C@H](CCC(N)=O)NC(=O)[C@H](Cc2c[nH]c3ccccc23)NC(=O)[C@H](C(C)C)NC1=O', 'kon', 200000);

Specify reported kon for the compound shown: CC[C@H](C)[C@H](NC(=O)[C@H](N)Cc1ccc(O)cc1)C(=O)N[C@H]1CSSC[C@@H](C(=O)N(C)[C@H](C(N)=O)[C@@H](C)CC)NC(=O)[C@H](CCCNC(=N)N)NC(=O)[C@H](Cc2c[nH]cn2)NC(=O)[C@H](C)NC(=O)CN(C)C(=O)[C@H](Cc2c[nH]c3ccccc23)NC(=O)[C@H](CO)NC(=O)[C@H](CCC(N)=O)NC(=O)[C@H](Cc2cn(C)c3ccccc23)NC(=O)[C@H](C(C)C)NC1=O [Cp40 D7S] (H-[dY]ICV[Trp(1-Me)]QSW[Sar]AHRC[NMeI]-NH2; disulfide 3-13)
100000

Read off the recorded kon for `CC[C@H](C)[C@H](NC(=O)[C@H](N)Cc1ccc(O)cc1)C(=O)N[C@H]1CSSC[C@@H](C(=O)N(C)[C@H](C(N)=O)[C@@H](C)CC)NC(=O)[C@H](CCCNC(=N)N)NC(=O)[C@H](Cc2c[nH]cn2)NC(=O)[C@H](C)NC(=O)CNC(=O)[C@H](Cc2c[nH]c3ccccc23)NC(=O)[C@H](CC(=O)O)NC(=O)[C@H](CCC(N)=O)NC(=O)[C@H](Cc2cn(C)c3ccccc23)NC(=O)[C@H](C(C)C)NC1=O`
900000

---

# tested_target: C3b (Homo sapiens)
# Construct: the α’NT, MG6^α−8, anchor, and C-terminal complement (CTC) domains of the α-chain that are all shared between C3c and C3b; purchased Complement Technology (Tyler, TX, USA)
# protocol_details: SPR kinetic binding studies on immobilized C3b
# run_conditions: Table 1; amine-reactive immobilized C3b, 25 °C; average±SD of three independent SPR experiments; read-out: KD
Bridge positions count the residues as written; N and C are the ends. Square brackets hold non-standard residues; d marks the D form. Peptide text beside a SMILES is read from it. Trp(1-Me) = Cn1cc(C[C@H](N)C(=O)O)c2ccccc21; NMeI = CC[C@H](C)[C@H](NC)C(=O)O; Sar = CNCC(=O)O
quantity: log10 Kd (log10 of the value in nM)
Please be aware that the numbers have been log10-transformed from Kd in nM.

Study these solved cases before continuing.
INSERT INTO assay_data (compound, quantity, measured_number) VALUES
  ('CC[C@H](C)[C@H](NC(=O)[C@@H](C)N)C(=O)N[C@H]1CSSC[C@@H](C(=O)N(C)[C@H](C(N)=O)[C@@H](C)CC)NC(=O)[C@H](CCCNC(=N)N)NC(=O)[C@H](Cc2c[nH]cn2)NC(=O)[C@H](C)NC(=O)CN(C)C(=O)[C@H](Cc2c[nH]c3ccccc23)NC(=O)[C@H](CC(=O)O)NC(=O)[C@H](CCC(N)=O)NC(=O)[C@H](Cc2cn(C)c3ccccc23)NC(=O)[C@H](C(C)C)NC1=O [Cp40 y1a]', 'log10 Kd', 0.46),
  ('CC[C@H](C)[C@H](NC(=O)[C@H](N)Cc1ccc(O)cc1)C(=O)N[C@H]1CSSC[C@@H](C(=O)N(C)[C@H](C(N)=O)[C@@H](C)CC)NC(=O)[C@H](CO)NC(=O)[C@H](Cc2c[nH]cn2)NC(=O)[C@H](C)NC(=O)CN(C)C(=O)[C@H](Cc2c[nH]c3ccccc23)NC(=O)[C@H](CO)NC(=O)[C@H](CCC(N)=O)NC(=O)[C@H](Cc2cn(C)c3ccccc23)NC(=O)[C@H](C(C)C)NC1=O [Cp40 D7S/R12S] (H-[dY]ICV[Trp(1-Me)]QSW[Sar]AHSC[NMeI]-NH2; disulfide 3-13)', 'log10 Kd', 1.77),
  ('CC[C@H](C)[C@H](NC(=O)[C@H](C)N)C(=O)N[C@H]1CSSC[C@@H](C(=O)N(C)[C@H](C(N)=O)[C@@H](C)CC)NC(=O)[C@H](CCCNC(=N)N)NC(=O)[C@H](Cc2c[nH]cn2)NC(=O)[C@H](C)NC(=O)CN(C)C(=O)[C@H](Cc2c[nH]c3ccccc23)NC(=O)[C@H](CC(=O)O)NC(=O)[C@H](CCC(N)=O)NC(=O)[C@H](Cc2cn(C)c3ccccc23)NC(=O)[C@H](C(C)C)NC1=O [Cp40 y1A] (H-AICV[Trp(1-Me)]QDW[Sar]AHRC[NMeI]-NH2; disulfide 3-13)', 'log10 Kd', 0.58),
  ('CC[C@H](C)[C@H](NC(C)=O)C(=O)N[C@H]1CSSC[C@@H](C(=O)N(C)[C@H](C(N)=O)[C@@H](C)CC)NC(=O)[C@H](CCCNC(=N)N)NC(=O)[C@H](Cc2c[nH]cn2)NC(=O)[C@H](C)NC(=O)CN(C)C(=O)[C@H](Cc2c[nH]c3ccccc23)NC(=O)[C@H](CC(=O)O)NC(=O)[C@H](CCC(N)=O)NC(=O)[C@H](Cc2cn(C)c3ccccc23)NC(=O)[C@H](C(C)C)NC1=O [Cp20, reference compound]', 'log10 Kd', 0.53),
  ('CC[C@H](C)[C@H](NC(=O)[C@H](N)Cc1ccc(O)cc1)C(=O)N[C@H]1CSSC[C@@H](C(=O)N(C)[C@H](C(N)=O)[C@@H](C)CC)NC(=O)[C@H](CCCNC(=N)N)NC(=O)[C@H](Cc2c[nH]cn2)NC(=O)[C@H](C)NC(=O)CNC(=O)[C@H](Cc2c[nH]c3ccccc23)NC(=O)[C@H](CC(=O)O)NC(=O)[C@H](CCC(N)=O)NC(=O)[C@H](Cc2cn(C)c3ccccc23)NC(=O)[C@H](C(C)C)NC1=O [Cp40 Sar9G]', 'log10 Kd', 0.23);

Give C3b (Homo sapiens) log10 Kd for the following compound: CC[C@H](C)[C@H](NC(=O)[C@H](N)Cc1ccc(O)cc1)C(=O)N[C@H]1CSSC[C@@H](C(=O)N(C)[C@H](C(N)=O)[C@@H](C)CC)NC(=O)[C@H](CCCNC(=N)N)NC(=O)[C@H](Cc2c[nH]cn2)NC(=O)[C@H](C)NC(=O)CN(C)C(=O)[C@H](Cc2c[nH]c3ccccc23)NC(=O)[C@H](CO)NC(=O)[C@H](CCC(N)=O)NC(=O)[C@H](Cc2cn(C)c3ccccc23)NC(=O)[C@H](C(C)C)NC1=O [Cp40 D7S] (H-[dY]ICV[Trp(1-Me)]QSW[Sar]AHRC[NMeI]-NH2; disulfide 3-13)
0.75
